The origin of these recorded values is PubChem BioAssay AID463229.

# Test system: INS-1E rat beta cells, no cytokines, CellTiter-Glo ATP, 48 h
# Test summary: cytokine-free beta-cell viability effect – INS-1E rat cells, ATP luminescence, cherry pick, counter-screen for beta-cell apoptosis protection project, dose response (AID 463229)
For each entry below, report its AC50 value.

Q: Return reported AC50; argument: CCCCNC(=O)c1ccc(Cn2c(=S)[nH]c3c([nH]c4ccc(OC)cc43)c2=O)cc1
A: 6.92 µM

Q: Return reported AC50; argument: O=C(Nc1cccc(C(F)(F)F)c1)Nc1ccc(N2CCCC2)c(S(=O)(=O)Nc2ccccc2Cl)c1
A: 4.27 µM

Q: Return reported AC50; argument: C/C(=N\NC(=O)c1cc(C2CC2)nc2ccccc12)c1ccc(O)cc1O
A: 5.61 µM

Q: Return reported AC50; argument: CC1CCC(C(C)C)C(OC(=O)Cn2c(-c3ccc(Cl)cc3)[n+](C)c3ccccc32)C1 (configuration not stated)
A: 3.83 µM

Q: Return reported AC50; argument: Cc1ccc(C#CC[N+]2(CC#Cc3ccc(C)cc3)CCCCC2)cc1
A: 3.33 µM

Q: Return reported AC50; argument: CCOC(=O)N1CCN(C(=O)CSCC(=O)Nc2nc(-c3ccc(-c4ccccc4)cc3)cs2)CC1
A: 4.49 µM

Q: Return reported AC50; argument: COc1ccc(CNc2ncnc3sccc23)cc1
A: 11.3 µM

Q: Return reported AC50; argument: CN(C)CCCNS(=O)(=O)c1ccc(NC2CCCCCC2)c([N+](=O)[O-])c1
A: 7.27 µM

Q: Return reported AC50; argument: CCCCOc1ncnc2c1[nH]c1ccc(F)cc12
A: 5.3 µM

Q: Return reported AC50; argument: CC(=O)NC(C)c1cc(Cl)c2cccnc2c1O (configuration not stated)
A: 10.7 µM

Q: Return reported AC50; argument: COc1ccc(C2/C=C\CN(C(=O)c3ccc(C)cc3)[C@H](Cc3ccccc3)C(=O)N2Cc2ccc(F)cc2)cc1 (some centres not stated)
A: 7.33 µM

Q: Return reported AC50; argument: COc1ccc(-c2nc(NC(=O)c3cc(C(C)(C)C)nn3C)sc2C)cc1
A: 17.6 µM
